- assay.protocol: Clinical benefit (RECIST 1.1) versus AUC/Cmax, Compound A monotherapy
- Type: in vivo, human
- measurement.context: human, plasma, intravenous, Cmax of Compound A free base associated with greater likelihood of clinical benefit
quantity.measured: Cmax

Task: Which Cmax value is on record for CCOCc1nc2c(N)nc3ccccc3c2n1CC(C)(C)O [Compound A] ?
Output: ≥ 8.38 ng/mL

---

- assay.protocol: Phase 1 pharmacokinetics: Compound A free base in plasma after intravenous infusion
- Assay type: in vivo, human
- measurement.context: human, plasma, iv
quantity.measured: half-life

Task: Which half-life value is on record for CCOCc1nc2c(N)nc3ccccc3c2n1CC(C)(C)O ?
Output: ~4 h

---

- assay.protocol: Plasma IP-10 induction from baseline (MSD cytokine assay)
- Format: in vivo, human
- measurement.context: human, plasma, intravenous; read-out: minimum Cmax required to induce enough IP-10 that results in clinical benefit
quantity.measured: Cmax

Task: Which Cmax value is on record for CCOCc1nc2c(N)nc3ccccc3c2n1CC(C)(C)O ?
Output: ≥ 9.4 ng/mL
